FYI, the data here is from paper doi:10.1101/2024.08.19.608619.

Recorded measurements of inhibition at 10 µM, one per entry
Biological target: hERG (Homo sapiens, UniProt Q12809)
Sequence (Q12809 whole entry): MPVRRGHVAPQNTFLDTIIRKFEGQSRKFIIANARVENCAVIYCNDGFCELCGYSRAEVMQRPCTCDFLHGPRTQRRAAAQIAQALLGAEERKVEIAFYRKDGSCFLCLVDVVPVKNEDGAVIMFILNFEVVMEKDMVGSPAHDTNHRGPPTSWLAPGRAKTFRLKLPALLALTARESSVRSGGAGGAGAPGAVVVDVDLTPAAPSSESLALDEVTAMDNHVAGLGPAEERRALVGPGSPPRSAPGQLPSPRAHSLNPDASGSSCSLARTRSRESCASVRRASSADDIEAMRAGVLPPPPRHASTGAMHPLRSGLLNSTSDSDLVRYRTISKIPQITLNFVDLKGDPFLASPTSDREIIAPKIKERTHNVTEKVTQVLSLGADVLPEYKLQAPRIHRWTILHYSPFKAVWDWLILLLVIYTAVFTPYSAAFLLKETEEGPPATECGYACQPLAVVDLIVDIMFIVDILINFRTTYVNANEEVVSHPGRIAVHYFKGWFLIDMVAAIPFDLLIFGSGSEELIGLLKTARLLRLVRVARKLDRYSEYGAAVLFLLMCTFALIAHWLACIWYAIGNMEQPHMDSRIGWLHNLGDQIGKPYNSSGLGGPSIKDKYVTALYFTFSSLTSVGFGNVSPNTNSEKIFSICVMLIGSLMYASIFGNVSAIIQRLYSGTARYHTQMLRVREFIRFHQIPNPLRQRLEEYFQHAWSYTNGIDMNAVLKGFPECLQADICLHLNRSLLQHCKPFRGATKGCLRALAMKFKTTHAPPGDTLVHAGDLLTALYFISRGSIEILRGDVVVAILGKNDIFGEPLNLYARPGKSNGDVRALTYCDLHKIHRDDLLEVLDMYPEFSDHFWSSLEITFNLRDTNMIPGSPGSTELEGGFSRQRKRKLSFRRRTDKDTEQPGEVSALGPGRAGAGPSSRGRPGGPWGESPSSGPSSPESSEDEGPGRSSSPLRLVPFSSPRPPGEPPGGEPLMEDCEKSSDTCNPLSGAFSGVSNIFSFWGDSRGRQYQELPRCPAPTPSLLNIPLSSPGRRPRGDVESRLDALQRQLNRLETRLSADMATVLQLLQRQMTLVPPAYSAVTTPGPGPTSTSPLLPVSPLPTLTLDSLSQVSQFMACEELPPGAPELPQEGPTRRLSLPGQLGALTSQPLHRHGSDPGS
Assay: In vitro CEREP profiling, Potassium Channel hERG (human)- [3H] Dofetilide
Assay type: binding
Set-up: purchased Eurofins Cerep (SafetyScreen44), recognised from the panel format
Details: hERG potassium channel binding assay, probe [3H] Dofetilide, test compound concentration 10 uM, read-out: perc_inhibition, % inhibition of the binding of a ligand specific for each target
Provide the reading as a plain figure in %.

>>> value("CC(C)C(Nc1ncnc2[nH]c(C(=O)NC3CCN(C)C3)cc12)c1ccc2c(c1)S(=O)(=O)CCC2 (centres unmarked)")
7

The molecule identified as Cc1nn(C)cc1-c1cc2c(NC(c3ccc4c(c3)S(=O)(=O)CCC4)C(C)C)ncnc2[nH]1 (centres unmarked) registered its inhibition at 10 µM at 3

====

Target: mu (MOP) (h) (Homo sapiens, UniProt P35372)
Construct: purchased Eurofins Cerep (SafetyScreen44), recognised from the panel format
Sequence (P35372 whole entry): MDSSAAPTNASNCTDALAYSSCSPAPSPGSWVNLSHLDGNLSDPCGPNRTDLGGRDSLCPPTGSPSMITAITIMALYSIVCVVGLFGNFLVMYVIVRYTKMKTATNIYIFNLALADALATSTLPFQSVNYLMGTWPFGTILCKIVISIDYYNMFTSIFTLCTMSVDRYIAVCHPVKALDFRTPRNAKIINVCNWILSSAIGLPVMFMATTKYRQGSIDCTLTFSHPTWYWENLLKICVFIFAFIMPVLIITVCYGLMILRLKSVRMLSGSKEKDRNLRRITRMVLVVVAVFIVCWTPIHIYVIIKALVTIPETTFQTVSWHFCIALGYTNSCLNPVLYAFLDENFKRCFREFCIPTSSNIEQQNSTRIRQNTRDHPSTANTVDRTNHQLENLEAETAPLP
Assay: In vitro CEREP profiling, mu (MOP) (h) (agonist radioligand)
Assay type: binding
Conditions: test compound concentration 10 uM
# perc_inhibition (% inhibition of the binding of a ligand specific for each target) listing for each entry below
Please respond with the number in % and leave the unit unwritten.

>>> value("CC(C)[C@@H](Nc1ncnc2[nH]c(-c3cnn(C)c3C#N)cc12)c1ccc2c(n1)OCCO2 [ASAP-0010716]")
77
>>> value("COc1ccc([C@H](Cc2nnn[nH]2)NC(=O)c2ncnc3[nH]ccc23)cc1 [ASAP-0015381]")
-3

Per the records, this compound ( C[C@H](C(=O)O)[C@@H](NC(=O)c1ncnc2[nH]ccc12)c1ccc(Br)cc1 [ASAP-0014722] ) has perc_inhibition (% inhibition of the binding of a ligand specific for each target) equal to -10

perc_inhibition (% inhibition of the binding of a ligand specific for each target) reported for this compound CNCc1cc(-c2cc3c(N[C@@H](c4ccc5c(c4)S(=O)(=O)CCC5)C(C)C)ncnc3[nH]2)co1 [ASAP-0011176] : -5

====

Experiment: Hepatic microsomal stability, HLM
Type: in vitro ADME, human
Conditions: In vitro human liver microsomal stability; no cofactor
Collected perc_remaining_no_cofactor values appear next to each entry.
Field: numeric (%). Do not append units.

Below, each entry is followed by its recorded perc_remaining_no_cofactor result.
>>> value("CNC(=O)c1cc2c(N[C@@H](c3ccc4c(c3)S(=O)(=O)CCC4)C(C)C)ncnc2[nH]1 [ASAP-0008685]")
101.0
>>> value("CNC(=O)Cn1cc(-c2cc3c(NC(c4ccc5c(c4)OCCO5)C(C)C)ncnc3[nH]2)cn1 (stereo not shown)")
92.0
>>> value("CC(C)[C@H](Nc1ncnc2[nH]c(-c3cnn(C)c3)cc12)c1ccc2c(c1)S(=O)(=O)CCC2 (single isomer, unassigned)")
95.0

# perc_remaining_no_cofactor (compound: CC(C)[C@H](Nc1ncnc2[nH]c(-c3cnn(CC(=O)N(C)C)c3)cc12)c1ccc2c(c1)OCCO2 (single isomer, unassigned) [ASAP-0013833] ) is 115.0

Record summary for CC(C)(C)[C@H](Nc1ncnc2[nH]c(-c3cnn(CC(N)=O)c3)cc12)c1ccc2c(c1)OCCO2 (racemic) [ASAP-0008581] : reported perc_remaining_no_cofactor = 87.0

Given item Cc1nn(C)cc1-c1cc2c(NC(c3ccc4c(c3)S(=O)(=O)CCC4)C(C)C)ncnc2[nH]1 (stereo not shown) , the value recorded as its perc_remaining_no_cofactor is 113.0

perc_remaining_no_cofactor reading for CC(C)[C@H](Nc1ncnc2[nH]cc(C(N)=O)c12)c1ccc2c(c1)OCCO2 (racemic) : 110.0

====

Test: In vitro dog hepatocyte stability
Type: in vitro ADME
Details: hepatocytes
metric: hepatocyte CLint

Briefly, hepatocyte CLint measured for CC(C)C(Nc1ncnc2[nH]c(C(=O)NC3CCN(C)C3)cc12)c1ccc2c(c1)S(=O)(=O)CCC2 (stereo not shown) : < 3 µL/min/1e6 cells

====

Below: a set of entries, each annotated with reported Papp A→B.
System: MDR1
Experiment: Permeability Papp (AB) MDR1/MDCKII
Conditions: dog, MDCK-MDR1, papp_a_to_b_mean, In vitro MDR1-MDCKII permeability, A to B, no inhibitor
Please give a number only; it is taken to be in ×10⁻⁶ cm/s.

These recorded examples may help you get a feel for the data.
>>> value("CCNC(=O)c1cc2c(NC(c3ccc4c(c3)S(=O)(=O)CCC4)C(C)C)ncnc2[nH]1 (stereo not drawn)")
0.532
>>> value("CC(C)C(Nc1ncnc2[nH]c(C(=O)NC3CCN(C)C3)cc12)c1ccc2c(c1)S(=O)(=O)CCC2 (stereo not drawn)")
0.0323

Now look at this one.
Here Cc1nn(C)cc1-c1cc2c(NC(c3ccc4c(c3)S(=O)(=O)CCC4)C(C)C)ncnc2[nH]1 (stereo not drawn) was tested on MDR1, and its Papp A→B came to 0.0911

====

Test: in vitro
Design: Cytotoxicity in iPSC-derived pneumocytes, CC50
Settings: human, ipsc-derived pneumocytes; ASAP-0008327-001=ASAP-0008438-001; read-out: 50.0
metric: CC50

Entry under test: CC(C)[C@@H](Nc1ncnc2[nH]c(C(N)=O)cc12)c1ccc2c(c1)OCCO2 [ASAP-0008438] . Its CC50 was > 50 µM

====

Assay: In vitro dog liver microsomal stability
Type: in vitro ADME
Assign labels as follows, please: met for clint below 20 µL/min/mg; not met for clint equal to or exceeding 20 µL/min/mg.

>>> assigned_class("C[C@H](C(=O)O)[C@@H](NC(=O)c1ncnc2[nH]ccc12)c1ccc(Br)cc1")
"met"
>>> assigned_class("CC(C)[C@H](Nc1ncnc2[nH]ccc12)c1ccc2c(c1)S(=O)(=O)CCC2")
"met"
>>> assigned_class("COc1ccc([C@H](Cc2nnn[nH]2)NC(=O)c2ncnc3[nH]ccc23)cc1")
"met"
>>> assigned_class("CC(C)[C@H](Nc1ncnc2[nH]c(-c3cnn(C)c3C#N)cc12)c1ccc2c(n1)OCCO2")
"not met"
>>> assigned_class("Cn1ncc(-c2cc3c(N[C@@H](c4ccc5c(n4)OCCO5)C(C)(C)C)ncnc3[nH]2)c1C#N")
"met"

Then there is this molecule:
Query: Strictly below 20 µL/min/mg in clint? CC(C)[C@@H](Nc1ncnc2[nH]c(-c3cnn(C)c3C#N)cc12)c1ccc2c(n1)OCCO2
Reply: not met

====

Tested on: HeLa-ACE2 cells
Conditions: read-out: 50.0; ASAP-0008327-001=ASAP-0011221-001; 1440 min; 50.0, 1440 min
metric: CC50

Reported HeLa-ACE2 cells CC50 for item Cn1ncc(-c2cc3c(N[C@@H](c4ccc5c(n4)OCCO5)C(C)(C)C)ncnc3[nH]2)c1C#N [ASAP-0011221] was > 10 µM

====

perc_remaining_no_cofactor values, listed per item
Test: Hepatic microsomal stability, MLM
Assay type: in vitro ADME
Conditions: In vitro mouse liver microsomal stability, no cofactor
The reply should contain only the number, in %.

>>> value("CNC(=O)c1cccc(-c2cc3c(N[C@@H](c4ccc5c(c4)S(=O)(=O)CCC5)C(C)C)ncnc3[nH]2)c1 [ASAP-0012344]")
101.0
>>> value("COc1ccc(C(NC(=O)c2ncnc3[nH]ccc23)C(C)c2nnn[nH]2)cc1 (mixture of isomers) [ASAP-0010744]")
92.0
>>> value("COc1ccc([C@@H](Cc2nnn[nH]2)NC(=O)c2ncnc3[nH]ccc23)cc1 [ASAP-0008340]")
93.0
>>> value("CC(C)[C@H](Nc1ncnc2[nH]c(C(=O)N[C@@H]3CCN(C)C3)cc12)c1ccc2c(c1)S(=O)(=O)CCC2 [ASAP-0011196]")
107.0
>>> value("CC(C)[C@H](Nc1ncnc2[nH]c(-c3cnn(CC(N)=O)c3)cc12)c1ccc2c(n1)OCCO2 [ASAP-0012307]")
110.0
>>> value("CC(C)[C@H](Nc1ncnc2[nH]c(-c3cnn(CC(=O)N(C)C)c3)cc12)c1ccc2c(c1)OCCO2 (single isomer, unassigned) [ASAP-0013837]")
114.0

Please turn your attention to the following entry.
Kindly note the recorded perc_remaining_no_cofactor for CC(C)[C@H](Nc1ncnc2[nH]cc(C(=O)NC3CC3)c12)c1ccc2c(c1)S(=O)(=O)CCC2 (racemic) [ASAP-0008647] , which is 101.0

====

Target: UniProt:P0DTD1
Test: biochemical
Assay type: biochemical
Conditions: SARS-CoV-2 nsp3 macrodomain TR-FRET single point; concentration 99.5 uM
metric: perc_inhibition_mean (%)
The figure you give is taken to be in %; do not add the unit.

// known answers, use as guide
>>> value("CC(C)[C@@H](CCN(C)C(=O)c1nn2cccnc2c1Cl)Nc1ncnc2[nH]ccc12")
1.645
>>> value("O=C(c1ccccc1)N1CCC(c2ccn3ncc(C(=O)N4CCc5cccnc54)c3c2)CC1")
-8.02
>>> value("Cn1cc([C@H]2CCCCN2c2ncnc3[nH]ccc23)cn1")
8.316
>>> value("O=C(C[C@@H](NC(=O)c1ncnc2[nH]ccc12)C1CC1)NCc1ccc(C(=O)O)cc1")
0.768
>>> value("O=C(c1c[nH]c(=O)cn1)N1CCC(c2ccn3ncc(C(=O)N4CCCCC4)c3c2)CC1")
45.826

The reported perc_inhibition_mean of the compound Cc1c([C@@H](C)Nc2ncnc3[nH]ccc23)cnn1-c1ccccc1 was 41.664

So for C[C@@H](Cc1ccc(Cl)s1)Nc1ccc([C@@H](CC(=O)O)NC(=O)c2c[nH]c3ncncc23)cc1 , the logged perc_inhibition_mean turned out to be 1.952

Please fill in: perc_inhibition_mean reported for O=C(CCN(Cc1cccc(Cl)c1)C(=O)c1ncccc1Cl)N1CCNCC1 = 7.518
